Data provenance is patent US20220177587A1.

molecular target: human PD-L1 (human) (UniProt Q9NZQ7); assay: flow cytometry; binding to PD-L1 cells against binding of the same variant to CD28 cells
Sequence (Q9NZQ7 19-290): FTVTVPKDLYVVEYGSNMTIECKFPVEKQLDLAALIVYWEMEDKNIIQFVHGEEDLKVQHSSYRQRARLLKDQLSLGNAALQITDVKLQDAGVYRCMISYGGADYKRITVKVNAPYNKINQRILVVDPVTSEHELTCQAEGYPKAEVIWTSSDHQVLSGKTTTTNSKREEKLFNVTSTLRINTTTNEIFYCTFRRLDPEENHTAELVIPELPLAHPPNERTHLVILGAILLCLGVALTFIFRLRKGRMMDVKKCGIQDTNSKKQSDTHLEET
observable: Ratio of PDL1:CD28

[[record]]
binder = "variant CD80 IgV-Fc E35D/M47V/A71G/L85M/L97Q (Fc fusion) VIHVTKEVKEVATLSCGHNVSVEELAQTRIYWQKDKKMVLTMMSGDVNIWPEYKNRTIFDITNNLSIVILGLRPSDEGTYECVVMKYEKDAFKREHQAEVTLSVKAD"
value_reported = 182

[[record]]
binder = "variant CD80 IgV-Fc Q33L/E35D/N48K/L85Q/L97Q (Fc fusion) VIHVTKEVKEVATLSCGHNVSVEELAQTRIYWLKDKKMVLTMMSGDMKIWPEYKNRTIFDITNNLSIVILALRPSDEGTYECVVQKYEKDAFKREHQAEVTLSVKAD"
value_reported = 162

[[record]]
binder = "variant CD80 IgV-Fc Q33L/E35D/M47I/T62N/L85Q (Fc fusion) VIHVTKEVKEVATLSCGHNVSVEELAQTRIYWLKDKKMVLTMMSGDINIWPEYKNRTIFDINNNLSIVILALRPSDEGTYECVVQKYEKDAFKREHLAEVTLSVKAD"
value_reported = 256

[[record]]
binder = "variant CD80 IgV-Fc E35D/M47I/E77A/L85Q/R94W (Fc fusion) VIHVTKEVKEVATLSCGHNVSVEELAQTRIYWQKDKKMVLTMMSGDINIWPEYKNRTIFDITNNLSIVILALRPSDAGTYECVVQKYEKDAFKWEHLAEVTLSVKAD"
value_reported = 238

[[record]]
binder = "variant CD80 IgV-Fc Q33L/E35D/M47V/L85Q (Fc fusion) VIHVTKEVKEVATLSCGHNVSVEELAQTRIYWLKDKKMVLTMMSGDVNIWPEYKNRTIFDITNNLSIVILALRPSDEGTYECVVQKYEKDAFKREHLAEVTLSVKAD"
value_reported = 177


A: variant CD80 IgV-Fc A26E/Q33R/E35D/M47L/L85Q/K86E (Fc fusion) VIHVTKEVKEVATLSCGHNVSVEELEQTRIYWRKDKKMVLTMMSGDLNIWPEYKNRTIFDITNNLSIVILALRPSDEGTYECVVQEYEKDAFKREHLAEVTLSVKAD
B: variant CD80 IgV-Fc Q33L/E35D/M47L/A71G/F92S (Fc fusion) VIHVTKEVKEVATLSCGHNVSVEELAQTRIYWLKDKKMVLTMMSGDLNIWPEYKNRTIFDITNNLSIVILGLRPSDEGTYECVVLKYEKDASKREHLAEVTLSVKAD
C: variant CD80 IgV-Fc H18Y/E35D/M47L (Fc fusion) VIHVTKEVKEVATLSCGYNVSVEELAQTRIYWQKDKKMVLTMMSGDLNIWPEYKNRTIFDITNNLSIVILALRPSDEGTYECVVLKYEKDAFKREHLAEVTLSVKAD
D: variant CD80 IgV-Fc H18Y/V20A/Q33L/E35D/M47V/Y53F (Fc fusion) VIHVTKEVKEVATLSCGYNASVEELAQTRIYWLKDKKMVLTMMSGDVNIWPEFKNRTIFDITNNLSIVILALRPSDEGTYECVVLKYEKDAFKREHLAEVTLSVKAD
E: variant CD80 IgV-Fc Q33L/E35D/T41S/M47V (Fc fusion) VIHVTKEVKEVATLSCGHNVSVEELAQTRIYWLKDKKMVLSMMSGDVNIWPEYKNRTIFDITNNLSIVILALRPSDEGTYECVVLKYEKDAFKREHLAEVTLSVKAD
Sort by Ratio of PDL1:CD28, descending. Write out the labels following the order that was asked for.
D, A, E, B, C
(D: 463, A: 276, E: 153, B: 77, C: 9)

A: variant CD80 IgV-Fc Q33K/E35D/D46V/L85Q (Fc fusion) VIHVTKEVKEVATLSCGHNVSVEELAQTRIYWKKDKKMVLTMMSGVMNIWPEYKNRTIFDITNNLSIVILALRPSDEGTYECVVQKYEKDAFKREHLAEVTLSVKAD
B: variant CD80 IgV-Fc A26E/Q33L/E35D/M47L (Fc fusion) VIHVTKEVKEVATLSCGHNVSVEELEQTRIYWLKDKKMVLTMMSGDLNIWPEYKNRTIFDITNNLSIVILALRPSDEGTYECVVLKYEKDAFKREHLAEVTLSVKAD
Among A and B , which shows a numerically higher Ratio of PDL1:CD28 result? Bench note: the answer is the label of the chosen record.
B

1: variant CD80 IgV-Fc Q33L/E35D/T41S/M43I (Fc fusion) VIHVTKEVKEVATLSCGHNVSVEELAQTRIYWLKDKKMVLSMISGDMNIWPEYKNRTIFDITNNLSIVILALRPSDEGTYECVVLKYEKDAFKREHLAEVTLSVKAD
2: variant CD80 IgV-Fc V22A/E23D/Q33L/E35D/M47V (Fc fusion) VIHVTKEVKEVATLSCGHNVSADELAQTRIYWLKDKKMVLTMMSGDVNIWPEYKNRTIFDITNNLSIVILALRPSDEGTYECVVLKYEKDAFKREHLAEVTLSVKAD
Dear colleague, could you let me know whether 1 or 2 has the lower recorded Ratio of PDL1:CD28? Thanks. When you have decided, please share the label of that item.
1
(1: 104, 2: 275)
